# System: SNB-19
# ASSAY_PROCEDURE: NCI tumour cell line growth inhibition, 48 h
The source made the active and inactive calls. Cut-off read from the data, not from the text of the source: active = GI50 up to about 1.1 µM and inactive = higher.
Possible outcomes: 1 (active), 0 (inactive)

MOLECULE | GROUP_LABEL
OC1(c2ccc3ccccc3c2)c2ccc3ccccc3c2C2=NCCN21 (stereo unspecified) | 0
CNS(=O)(=O)c1ccc2c(c1)/C(=C1/Nc3ccccc3C1=O)C(=O)N2 | 0
Nc1ccccc1C(=O)C(Br)C(Br)c1ccc2c(c1)OCO2 (stereo unspecified) | 0
CCCCC/C=C1\CC(CO)(COC(=O)CC(C(C)C)C(C)C)OC1=O (stereo unspecified) | 0
COc1ccccc1/C=C(\NC(=O)c1ccccc1)c1nc2ccc(Cl)cc2[nH]1 | 0
CSc1nc(C)c2c(n1)N(c1ccc(Cl)cc1)CC2 | 0
CC(C)OP(=O)(OC(C)C)c1c(N)n[nH]c1Nc1ccccc1 | 0
C[C@]12CCC(O)CC1=CC[C@@H]1[C@@H]2CC[C@]2(C)C(O)[C@H](n3ccnc3)C[C@@H]12 (stereo partly specified) | 0
CC1=C2C(=O)C(C)(C)C=C2C(=O)[C@](C)(O)C12CC2 [DEHYDROILLUDIN M] | 1
CCCNC1=C(C(=O)OCC)C(=O)CO1 | 0
COc1cc2c(cc1OC)C(O)[C@H](Br)C(C)(C)O2 (stereo partly specified) | 0
COc1ccc(-c2nc(O)c3ccccc3n2)cc1OC | 0
CC12CP(=O)(O)CC1C2(Cl)Cl (stereo unspecified) | 0
c1ccc(SC(CCCCC(Sc2ccccc2)Sc2ccccc2)Sc2ccccc2)cc1 | 0
CC(NC(=O)C(CC(=O)OCc1ccccc1)NC(=O)OCc1ccccc1)c1ccccc1 (stereo unspecified) | 0
CCC1C(NC(=O)OC)C(=O)N1[C@@H](C)c1ccccc1 (stereo partly specified) | 0
CCc1c[n+]([O-])c(C)cc1[N+](=O)[O-] | 0
CCC(=O)C1(c2ccccc2)CCN(C)CC1 | 0
O=C(Cc1cc[n+]([O-])cc1)C(=O)Nc1cc(Cl)c(Cl)cc1Cl | 0
CCCCCCCCCCCCCC1=C(O)C(=O)C(CC2=C(O)C(=O)C(CCCCCCCCCCCCC)=C(O)C2=O)=C(O)C1=O | 0
O=C(Nc1ccccc1)c1cc(S(=O)(=O)Nc2n[nH]c(=O)[nH]2)c(SSc2cc(Cl)c(C(=O)Nc3ccccc3)cc2S(=O)(=O)Nc2n[nH]c(=O)[nH]2)cc1Cl | 0
